B1: LINE1-mini (parent)
chain: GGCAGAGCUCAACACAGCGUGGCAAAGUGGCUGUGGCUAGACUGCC

Variants of: B1
Assay: self-cleavage, relative activity (ratio to wild type); higher = more cleavage; in vitro, sequencing; the parent is a self-cleaving ribozyme
Give self-cleavage for every item shown.
Please respond with just the number, no unit label.

input: Entry under review: C8G U38G . Reported self-cleavage?
output: 0.32

input: Entry under review: C3A A4G . Reported self-cleavage?
output: 0.17

input: Entry under review: A6C C23U . Reported self-cleavage?
output: 0.62

input: Entry under review: A12U G21C . Reported self-cleavage?
output: 0.21

input: Entry under review: A14C C31U . Reported self-cleavage?
output: 0.02

input: Entry under review: A14U C46G . Reported self-cleavage?
output: 0.19

input: Entry under review: A11G G35U . Reported self-cleavage?
output: 0.03

input: Entry under review: A4U C8U . Reported self-cleavage?
output: 0.26

input: Entry under review: G19C U32A . Reported self-cleavage?
output: 0.16

input: Entry under review: U32A C45A . Reported self-cleavage?
output: 0.11

input: Entry under review: G22U G36C . Reported self-cleavage?
output: 0.1

input: Entry under review: C3U A6U . Reported self-cleavage?
output: 0.38

input: Entry under review: A24U U43G . Reported self-cleavage?
output: 0.03

input: Entry under review: G29A G44C . Reported self-cleavage?
output: 0.34

input: Entry under review: G1A A11G . Reported self-cleavage?
output: 0.06

input: Entry under review: A25U G27C . Reported self-cleavage?
output: 0.52

input: Entry under review: U20C A41C . Reported self-cleavage?
output: 0.08

input: Entry under review: A4C G36U . Reported self-cleavage?
output: 0.1

input: Entry under review: A24G G29U . Reported self-cleavage?
output: 1.07

input: Entry under review: A12U A26C . Reported self-cleavage?
output: 0.16

input: Entry under review: G7U C46G . Reported self-cleavage?
output: 0.09

input: Entry under review: G22C C37A . Reported self-cleavage?
output: 0.09
